Listed here are compounds together with their documented AUC.
# EXPERIMENT NOTES: AUC in NMRI mouse at 50 mg/kg, iv
# Assay type: ADME, organism-based
# Parameters: dose 50 mg/kg, route intravenous
# CONDITION CONTEXT: plasma

COMPOUND	AUC, ng·h/mL
N#C/N=C(\NCCCCCCS(=O)(=O)N(CCF)OCC1CCCCC1)Nc1ccncc1	47500
O=C1C(=O)C(Nc2ccncc2)C1NCCCCCCS(=O)(=O)N(OCCN1CCOCC1)C1CCCCC1 (centres undefined)	12500
N#CNC(=Nc1ccncc1)NCCCCCCS(=O)(=O)N(OCCN1CCOCC1)C1CCCCC1	10200
O=C(NCCCCCCS(=O)(=O)N(OCCN1CCOCC1)C1CCCCC1)Nc1ccncc1	7020
